- Target entity: CDK7/cyclinH/MAT1 trimeric complex (Homo sapiens)
- Sequence (P50613 whole entry): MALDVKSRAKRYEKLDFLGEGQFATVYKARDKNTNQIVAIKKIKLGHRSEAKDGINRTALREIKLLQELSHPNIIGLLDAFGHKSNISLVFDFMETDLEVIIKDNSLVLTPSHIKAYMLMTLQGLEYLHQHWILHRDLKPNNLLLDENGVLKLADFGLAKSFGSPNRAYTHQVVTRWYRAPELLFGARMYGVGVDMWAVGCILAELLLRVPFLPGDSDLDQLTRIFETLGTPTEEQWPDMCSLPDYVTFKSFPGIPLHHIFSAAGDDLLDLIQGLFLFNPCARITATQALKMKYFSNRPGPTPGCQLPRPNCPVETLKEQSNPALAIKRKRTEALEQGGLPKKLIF
- Sequence (P51946 whole entry partner): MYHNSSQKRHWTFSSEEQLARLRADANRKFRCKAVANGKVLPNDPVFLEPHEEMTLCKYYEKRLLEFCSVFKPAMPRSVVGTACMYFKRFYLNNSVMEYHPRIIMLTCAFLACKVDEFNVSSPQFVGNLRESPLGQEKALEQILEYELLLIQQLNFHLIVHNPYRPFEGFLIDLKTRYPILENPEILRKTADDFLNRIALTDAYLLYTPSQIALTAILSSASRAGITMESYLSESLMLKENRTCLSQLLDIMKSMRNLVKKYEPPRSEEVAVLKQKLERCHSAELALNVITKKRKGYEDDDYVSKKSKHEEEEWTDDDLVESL
- Sequence (P51948 whole entry partner): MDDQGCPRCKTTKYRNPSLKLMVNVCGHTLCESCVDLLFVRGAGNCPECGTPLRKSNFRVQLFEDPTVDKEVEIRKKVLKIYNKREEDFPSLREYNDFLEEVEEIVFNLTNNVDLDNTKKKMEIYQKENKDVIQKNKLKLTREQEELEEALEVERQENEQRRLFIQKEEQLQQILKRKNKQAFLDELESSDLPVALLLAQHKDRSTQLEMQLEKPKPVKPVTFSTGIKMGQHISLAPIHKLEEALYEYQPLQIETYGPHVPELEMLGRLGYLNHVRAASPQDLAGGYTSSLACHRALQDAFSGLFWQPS
- Protocol: In vitro CDK7 assay, potency of irreversible covalent inhibitors (kinact/KI), coupled PK/LDH ADP readout at 340 nm
- Protocol conditions: CDK7 (20 nM enz.) (KI, μM), 20 nM enzyme
Readout name: Ki (µM)

The following compounds have reported results that may help.
Field: Ki (CDK7/cyclinH/MAT1 trimeric complex (Homo sapiens)). Entry: C=CC(=O)N1CC(N2CCO[C@@H](c3cc(C)c4c(c3)Nc3nccc(C5CCOCC5)c3CO4)CC2)C1 (single isomer, unassigned) 0.512

Field: Ki (CDK7/cyclinH/MAT1 trimeric complex (Homo sapiens)). Entry: C=CC(=O)N1CC(N2CCC(c3cc(C#N)c4c(c3)Nc3nccc(N5CCOCC5)c3C(C)O4)CC2)C1 (stereo not drawn) 0.055

[I] CC#CC(=O)N1CCC(N2CCC(c3cc4c(c(C)n3)O[C@@H](C)c3c(N5CCOCC5)ccnc3N4)CC2)CC1 (single isomer, unassigned)
[II] CC#CC(=O)N1CC(N2CC(c3cc4c(c(C)n3)O[C@H](C)c3c(C5CCOCC5)ccnc3N4)C2)C1 (single isomer, unassigned)
[III] C=CC(=O)N1CC[C@H](N2CC(c3cc(C)c4c(c3)Nc3nccc(C5CCOCC5)c3CO4)C2)[C@H](F)C1 (mixture of isomers)
[IV] C=CC(=O)N1CC[C@@H](N2CC(c3cc4c(c(C(F)(F)F)n3)OCc3c(-c5cnn(C)c5)ccnc3N4)C2)C1 (single isomer, unassigned)
Parameters: sort_field (Ki), sort_dir (desc). Form field (ranking): labels in requested order. I, II, IV, III
